# target: Cytochrome P450 1A1 (Homo sapiens)
# measurementNotes: Inhibition of recombinant human CYP1A1 using 7-ethyl-0-resorufin as substrate incubated for 30 mins in presence of NADPH by EROD assay
recordedEndpoint: pIC50
pIC50 is defined as minus the log10 of a concentration measured in mol/L.

Please review the entries below; each comes with its answer.
c1csc(-c2csc(Nc3ccc(Cn4cncn4)cc3)n2)n1; 6.78
Fc1cccc(Nc2nc(-c3nc(-c4cccnc4)cs3)cs2)c1; 7.52

Input line: Give pIC50 for the following compound: `COc1cc(Nc2nc(-c3nc(-c4ccccc4)c(C)s3)cs2)cc(OC)c1`
Output line: 6.41

Input line: Give pIC50 for the following compound: `COc1cc(Nc2nc(-c3nc(-c4ccccc4F)cs3)cs2)cc(OC)c1`
Output line: 6.46

Input line: Give pIC50 for the following compound: `Clc1cc(Cl)cc(Nc2nc(-c3nccs3)cs2)c1`
Output line: 6.75

* * *

log10 IC50: recorded values
# target: UniProt P04798
# Sequence (P04798 whole entry): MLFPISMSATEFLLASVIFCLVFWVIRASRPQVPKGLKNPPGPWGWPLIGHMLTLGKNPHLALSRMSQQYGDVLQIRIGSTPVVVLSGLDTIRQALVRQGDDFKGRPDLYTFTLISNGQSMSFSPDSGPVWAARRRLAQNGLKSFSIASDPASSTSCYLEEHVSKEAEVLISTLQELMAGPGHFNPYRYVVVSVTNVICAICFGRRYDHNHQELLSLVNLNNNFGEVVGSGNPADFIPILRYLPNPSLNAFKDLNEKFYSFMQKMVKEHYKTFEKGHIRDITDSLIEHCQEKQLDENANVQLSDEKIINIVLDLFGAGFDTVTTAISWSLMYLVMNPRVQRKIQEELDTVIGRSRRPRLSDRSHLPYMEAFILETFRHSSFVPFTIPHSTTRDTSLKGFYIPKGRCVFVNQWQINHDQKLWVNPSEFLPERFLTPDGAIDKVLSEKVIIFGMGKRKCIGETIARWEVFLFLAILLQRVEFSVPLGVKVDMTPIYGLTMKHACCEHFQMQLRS
# measurementNotes: Inhibition of recombinant human CYP1A1 using 7-ethyl-0-resorufin as substrate incubated for 30 mins in presence of NADPH by EROD assay
Hi team, quick reminder: these entries are log10 of IC50 (nM).

Please review the entries below; each comes with its answer.
COc1ccc(-c2csc(-c3csc(Nc4cccc(F)c4)n3)n2)cc1OC; 2.32
c1csc(-c2csc(Nc3ccc(N4CCOCC4)cc3)n2)n1; 3.00
C#CCOc1ccccc1-c1csc(-c2csc(Nc3cccc(F)c3)n2)n1; 2.10
COc1cc(Nc2nc(-c3nc(-c4ccccc4Cl)cs3)cs2)cc(OC)c1; 2.51
Cc1sc(-c2csc(Nc3cccc(F)c3)n2)nc1-c1ccncc1; 2.02

Input line: Give log10 IC50 for the following compound: `Clc1cc(Nc2nc(-c3nccs3)cs2)cc(Cl)c1Cl`
Output line: 2.68

Input line: Give log10 IC50 for the following compound: `C#CCOc1ccccc1-c1csc(-c2csc(Nc3cc(OC)cc(OC)c3)n2)n1`
Output line: 2.43

Input line: Give log10 IC50 for the following compound: `Clc1cccc(Nc2nc(-c3nccs3)cs2)c1`
Output line: 2.42

Input line: Give log10 IC50 for the following compound: `CCc1sc(-c2csc(Nc3cc(Cl)cc(Cl)c3)n2)nc1-c1ccccc1`
Output line: 2.00

Input line: Give log10 IC50 for the following compound: `c1ccc(-c2csc(-c3csc(Nc4ccc(N5CCOCC5)cc4)n3)n2)cc1`
Output line: 2.52

Input line: Give log10 IC50 for the following compound: `CCc1sc(-c2csc(Nc3cc(OC)cc(OC)c3)n2)nc1-c1ccccc1`
Output line: 2.79

Input line: Give log10 IC50 for the following compound: `c1cn(Cc2ccc(Nc3nc(-c4nccs4)cs3)cc2)cn1`
Output line: 1.85

Input line: Give log10 IC50 for the following compound: `Clc1cc(Cl)cc(Nc2nc(-c3nc(-c4ccccn4)cs3)cs2)c1`
Output line: 2.96

Input line: Give log10 IC50 for the following compound: `c1cncc(-c2csc(-c3csc(Nc4ccc(N5CCOCC5)cc4)n3)n2)c1`
Output line: 1.35

Input line: Give log10 IC50 for the following compound: `Clc1ccccc1-c1csc(-c2csc(Nc3ccc(N4CCOCC4)cc3)n2)n1`
Output line: 1.67

Input line: Give log10 IC50 for the following compound: `COc1cc(Nc2nc(-c3nc(-c4cccc(C#N)c4)cs3)cs2)cc(OC)c1`
Output line: 2.74

Input line: Give log10 IC50 for the following compound: `Fc1ccccc1-c1csc(-c2csc(Nc3ccc(N4CCOCC4)cc3)n2)n1`
Output line: 2.04

Input line: Give log10 IC50 for the following compound: `COc1cc(Nc2nc(-c3nc(-c4cccc(Cl)c4)cs3)cs2)cc(OC)c1`
Output line: 3.81
